The measured values listed here are drawn from the supplement of paper PMC8728848.

- studySystem: Fuc(a1-2)[Gal(a1-3)]Gal(b1-3)GlcNAc
- procedureText: glycan array binding signal (z-score within array); higher = stronger binding
- conditionDetails: glycan notation: IUPAC condensed, linker removed
This is one part of a sample in which the strongest signals are shown more often than they occur.
Each entry below lists one item and its recorded glycan array binding signal (z-score) value.
observationType: glycan array binding signal (z-score)

{"binder": "Gal 8 (Homo sapiens), O00214 (protein) MMLSLNNLQNIIYNPVIPFVGTIPDQLDPGTLIVIRGHVPSDADRFQVDLQNGSSMKPRADVAFHFNPRFKRAGCIVCNTLINEKWGREEITYDTPFKREKSFEIVIMVKDKFQVAVNGKHTLLYGHRIGPEKIDTLGIYGKVNIHSIGFSFSSDLQSTQASSLELTEISRENVPKSGTPQLPSNRGGDISKIAPRTVYTKSKDSTVNHTLTCTKIPPMNYVSKRLPFAARLNTPMGPGRTVVVKGEVNANAKSFNVDLLAGKSKDIALHLNPRLNIKAFVRNSFLQESWGEEERNITSFPFSPGMYFEMIIYCDVREFKVAVNGVHSLEYKHRFKELSSIDTLEINGDIHLLEVRSW", "reading": 3.58}
{"binder": "AT5G24760(45) (Arabidopsis thaliana), Q8LEB2 (protein) MSASSSSFEQPQVITCNAAVAWRAGEPLVMEEVEVSPPQPLEIRIKVVCTSLCRSDLSAWESQSLLPRIFGHEAAGIVESIGEGVTEFEKGDHVLAVFTGECGSCRHCISGKSNMCQVLGMERKGLMHSDQKTRFSIKGKPVYHYCAVSSFSEYTVVHSGCAVKVDPLAPLHKICLLSCGVAAGLGAAWNVADVQKGSSVVIFGLGTVGLSVAQGAKLRGAAQILGVDINPAKAEQAKTFGVTDFINSNDLSEPIPQVIKRMTGGGADFSFECVGDTGIATTALQSCSDGWGMTVTLGVPKAKPEVSAHYGLFLSGKSLKGTLFGGWKPKSDLPSLIDKYMNKEIMIDEFITHNLSFDEINKAFVLMREGKCLRCVLHMPK", "reading": -0.224}
